# credit: ChEMBL document CHEMBL1138779

# Test system: KB
# experiment: Dose required for reduction in camptothecin resistant human nasopharyngeal KB cancer cells after 3 days incubation
# Type: functional
# measurement context: 72 h, read-out: ED50 (the source's name)
Assignment: determine reported EC50 for the given molecules.

COC(=O)[C@H](CCSC)NC(=O)c1ccc(N[C@@H]2c3cc4c(cc3[C@@H](c3cc(OC)c(O)c(OC)c3)[C@H]3C(=O)OC[C@@H]32)OCO4)cc1    3.3 µM
COC(=O)[C@H](Cc1ccccc1)NC(=O)c1ccc(N[C@@H]2c3cc4c(cc3[C@@H](c3cc(OC)c(O)c(OC)c3)[C@H]3C(=O)OC[C@@H]32)OCO4)cc1    3.7 µM
COc1cc([C@@H]2c3cc4c(cc3[C@@H](Nc3ccc(C(=O)N[C@@H](C)C(=O)OCc5ccccc5)cc3)[C@H]3COC(=O)[C@H]23)OCO4)cc(OC)c1O    1.7 µM
COc1cc([C@@H]2c3cc4c(cc3[C@@H](Nc3ccc(C(=O)N[C@H](C)C(=O)OCc5ccccc5)cc3)[C@H]3COC(=O)[C@H]23)OCO4)cc(OC)c1O    1.9 µM
COc1cc([C@@H]2c3cc4c(cc3[C@@H](NC(=O)[C@H](Cc3ccc(O)cc3)NC(=O)OCc3ccccc3)[C@H]3COC(=O)[C@H]23)OCO4)cc(OC)c1O    9 µM

Kindly review the next molecule as well.
Provide measured EC50 value, entry: COC(=O)[C@H](Cc1c[nH]cn1)NC(=O)c1ccc(N[C@@H]2c3cc4c(cc3[C@@H](c3cc(OC)c(O)c(OC)c3)[C@H]3C(=O)OC[C@@H]32)OCO4)cc1
17.6 µM

====

# target desc: DNA topoisomerase II (Homo sapiens) (UniProt P11388+Q02880)
# experiment: Percentage of protein-linked DNA breaks in KB cells by [3H]thymidine incorporation
# Assay type: functional, cell-based
# Design: concentration or dose not given beside the values
Values of Activity greater than or equal to 80% map to Y; values below map to N.

COC(=O)[C@H](Cc1ccccc1)NC(=O)c1ccc(N[C@@H]2c3cc4c(cc3[C@@H](c3cc(OC)c(O)c(OC)c3)[C@H]3C(=O)OC[C@@H]32)OCO4)cc1    Y

# check: Activity of COc1cc([C@@H]2c3cc4c(cc3[C@@H](Nc3ccc(C(=O)N[C@@H](Cc5c[nH]c6ccccc56)C(=O)O)cc3)[C@H]3COC(=O)[C@H]23)OCO4)cc(OC)c1O is greater than or equal to 80%
N

I'd appreciate it if you could say whether COc1cc([C@@H]2c3cc4c(cc3[C@@H](Nc3ccc(C(=O)N[C@H](C)C(=O)OCc5ccccc5)cc3)[C@H]3COC(=O)[C@H]23)OCO4)cc(OC)c1O has Activity at least equal to 80%.
Y

====

# target desc: DNA topoisomerase II (Homo sapiens) (UniProt P11388+Q02880)
# experiment: Percentage of protein-linked DNA breaks in KB cells by [3H]thymidine incorporation
# Assay type: functional, cell-based
# Design: concentration or dose not given beside the values
outcome measure: Activity (%)
Answers are plain numbers, in %.

The following molecules have reported results that may help.
COC(=O)[C@H](Cc1ccc(O)cc1)NC(=O)c1ccc(N[C@@H]2c3cc4c(cc3[C@@H](c3cc(OC)c(O)c(OC)c3)[C@H]3C(=O)OC[C@@H]32)OCO4)cc1    76
COC(=O)[C@H](Cc1ccc(O)c(O)c1)NC(=O)c1ccc(N[C@@H]2c3cc4c(cc3[C@@H](c3cc(OC)c(O)c(OC)c3)[C@H]3C(=O)OC[C@@H]32)OCO4)cc1    33

Proceed to the following item.
Please give the documented Activity of COc1cc([C@@H]2c3cc4c(cc3[C@@H](O[C@@H]3O[C@@H]5CO[C@@H](C)O[C@H]5[C@H](O)[C@H]3O)[C@H]3COC(=O)[C@H]23)OCO4)cc(OC)c1O [ETOPOSIDE]
100
